Reference source for all entries: ChEMBL document CHEMBL3600330

assay: Cytotoxicity against human PBMC assessed as cell viability after 48 hrs by MTT reduction assay; format: cell-based; settings: PBMC (peripheral blood mononuclear cells)
Please use 1 (yes) for CC50 at 48 h under 400 µM and 0 (no) for everything else, ties included.

Below 400 µM on CC50 at 48 h? Entry O=C(OCC1CCN(Cc2ccc3c(c2)OCO3)CC1)c1ccccc1
1 (yes)

Below 400 µM on CC50 at 48 h? Entry O=C(OCC1CCN(Cc2ccc3c(c2)OCO3)CC1)c1ccc(Br)cc1
1 (yes)

Below 400 µM on CC50 at 48 h? Entry CCCCCCNC(=O)OCC1CCN(Cc2ccc3c(c2)OCO3)CC1
1 (yes)

Below 400 µM on CC50 at 48 h? Entry O=C(OCC1CCN(Cc2ccc3c(c2)OCO3)CC1)c1ccc2c(c1)OCO2
1 (yes)

Below 400 µM on CC50 at 48 h? Entry COc1ccc(C(=O)OCC2CCN(Cc3ccc4c(c3)OCO4)CC2)cc1OC
0 (no)

Below 400 µM on CC50 at 48 h? Entry O=C(/C=C/c1ccc2c(c1)OCO2)OCC1CCN(Cc2ccc3c(c2)OCO3)CC1
0 (no)

Below 400 µM on CC50 at 48 h? Entry CCNC(=O)OCC1CCN(Cc2ccc3c(c2)OCO3)CC1
0 (no)

Below 400 µM on CC50 at 48 h? Entry O=C(OCC1CCN(Cc2ccc3c(c2)OCO3)CC1)c1ccc(F)cc1
0 (no)

Below 400 µM on CC50 at 48 h? Entry O=C(OCC1CCN(Cc2ccc3c(c2)OCO3)CC1)c1ccc([N+](=O)[O-])cc1
1 (yes)
